Cited source for all entries: the supplement of paper PMC9112550

system: Escherichia coli TOP10; experiment: shrunken log2 fold change of peptide-encoding DNA abundance (4.5 h post-induction vs induction); higher = less antimicrobial activity (less host growth inhibition); conditions: time post-induction: 4.5 h; library: site-saturation at positions 5, 18, 19, 20;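 note: peptides expressed intracellularly from a pBAD plasmid library in pooled LB shake-flask culture, induced with 0.3% L-arabinose, DNA abundance read by NGS, three biological replicates, DESeq2 with apeglm shrinkage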
recordedMetric: shrunken log2 fold change
Give bare numbers.

RRIRCRPPRLPRPRPRPDWIPRP -0.159
RRIRVRPPRLPRPRPRPYKLPRP -0.745
RRIRNRPPRLPRPRPRPHRQPRP -0.0962
RRIRARPPRLPRPRPRPDVCPRP -0.0214

Provide the reported shrunken log2 fold change of each entry below, same order.
1. RRIRFRPPRLPRPRPRPFAEPRP
2. RRIRYRPPRLPRPRPRPGSQPRP
3. RRIRCRPPRLPRPRPRPIAKPRP
4. RRIRTRPPRLPRPRPRPTQAPRP
5. RRIRPRPPRLPRPRPRPVVWPRP
6. RRIRRRPPRLPRPRPRPMNIPRP

# output
-0.348
0.0113
0.0637
0.111
0.535
-0.267
